PROCEDURE TEXT: Oral bioavailability in Sprague-Dawley rat at 10 mg/kg
Assay type: ADME, organism-based
COND: in vivo
VALUE TYPE: bioavailability (%)
Numbers only, in %.

Quick one: bioavailability for Cn1c(=O)c2c(ncn2CCC(=O)NNC(=O)c2cc3nccc(-c4ccc(OC(F)F)c(OCC5CC5)c4)n3n2)n(C)c1=O ? 5.5

----------
PROCEDURE TEXT: Clearance in Sprague-Dawley rat at 5 mg/kg, iv
Type: ADME, organism-based
COND: in vivo
VALUE TYPE: clearance (mL/min/kg)
Answers are plain numbers, in mL/min/kg.

Quick one: clearance for Cn1c(=O)c2c(ncn2CCC(=O)NNC(=O)c2cc3nccc(-c4ccc(OC(F)F)c(OCC5CC5)c4)n3n2)n(C)c1=O ? 358

----------
Field: pIC50. Provide a value for each of the molecules that follow.
Tested on: RAW264.7
PROCEDURE TEXT: Antiinflammatory activity against mouse RAW264.7 cells assessed as inhibition of LPS-induced NO release preincubated for 2 hrs followed by LPS stimulation and measured after 4 hrs by RT-PCR analysis
Assay type: functional, cell-based
Give bare numbers, as −log10 of the molar value.

{"COMPOUND": "Cn1c(=O)c2c(ncn2CCC(=O)NNC(=O)c2cc3nccc(-c4ccc(OC(F)F)c(OCC5CC5)c4)n3n2)n(C)c1=O", "OBS VALUE": 5.63}

Please examine the following record next.
Quick one: pIC50 for Cn1c(=O)c2c(ncn2CCCC(=O)NNC(=O)c2cccc3[nH]c(-c4ccc(OC(F)F)c(OC(F)F)c4)nc23)n(C)c1=O ? 5.66

----------
SYSTEM: 3',5'-cyclic-AMP phosphodiesterase 4D (Homo sapiens)
Sequence (Q08499 whole entry): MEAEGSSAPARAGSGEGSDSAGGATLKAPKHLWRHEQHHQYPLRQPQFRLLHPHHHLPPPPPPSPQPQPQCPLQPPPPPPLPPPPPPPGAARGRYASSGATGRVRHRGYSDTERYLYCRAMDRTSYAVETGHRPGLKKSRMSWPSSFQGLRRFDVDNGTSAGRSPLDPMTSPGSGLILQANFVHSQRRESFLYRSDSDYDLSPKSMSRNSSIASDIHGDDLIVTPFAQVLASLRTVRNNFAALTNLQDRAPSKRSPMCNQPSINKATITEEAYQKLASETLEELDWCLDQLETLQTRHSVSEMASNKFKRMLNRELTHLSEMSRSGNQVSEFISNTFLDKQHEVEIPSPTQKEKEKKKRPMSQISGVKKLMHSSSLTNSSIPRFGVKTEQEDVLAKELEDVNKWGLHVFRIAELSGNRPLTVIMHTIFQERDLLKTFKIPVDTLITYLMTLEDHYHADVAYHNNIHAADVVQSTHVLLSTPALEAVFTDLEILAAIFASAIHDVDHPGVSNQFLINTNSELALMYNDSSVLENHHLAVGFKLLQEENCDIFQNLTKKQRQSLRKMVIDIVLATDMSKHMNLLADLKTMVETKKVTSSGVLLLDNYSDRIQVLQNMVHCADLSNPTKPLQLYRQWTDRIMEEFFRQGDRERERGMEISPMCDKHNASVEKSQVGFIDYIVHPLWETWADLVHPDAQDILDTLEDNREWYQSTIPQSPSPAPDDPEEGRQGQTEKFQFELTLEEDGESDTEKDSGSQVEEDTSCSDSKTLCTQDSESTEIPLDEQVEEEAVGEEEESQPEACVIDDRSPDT
PROCEDURE TEXT: Inhibition of PDE4D (unknown origin) at 1 uM relative to control
VALUE TYPE: inhibition (%)
Give bare numbers, in %.

{"COMPOUND": "Cn1c(=O)c2c(nc(Br)n2CCCC(=O)NNC(=O)c2cccc3[nH]c(-c4ccc(OC(F)F)c(OCC5CC5)c4)nc23)n(C)c1=O", "DISPLAY UNIT": "%", "inhibition": 99.2}

Here are 4 compounds. What values of inhibition were reported for them?
1. Cn1c(=O)c2c(nc(NCc3ccccc3)n2CCCC(=O)NNC(=O)c2coc(-c3ccc(OC(F)F)c(OCC4CC4)c3)n2)n(C)c1=O
2. Cn1c(=O)c2c(nc(NCc3ccccc3)n2CCCC(=O)NNC(=O)c2csc(-c3ccc(OC(F)F)c(OCC4CC4)c3)n2)n(C)c1=O
3. Cn1c(=O)c2c(nc(Br)n2CCCC(=O)NNC(=O)c2csc(-c3ccc(OC(F)F)c(OCC4CC4)c3)n2)n(C)c1=O
4. Cn1c(=O)c2c(ncn2CCCC(=O)NNC(=O)c2cc3nccc(-c4ccc(OC(F)F)c(OCC5CC5)c4)n3n2)n(C)c1=O

1: 85.5; 2: 89.9; 3: 97.2; 4: 95.6

Here are 2 compounds. What values of inhibition were reported for them?
1. Cn1c(=O)c2c(ncn2CCC(=O)NNC(=O)c2cc3nccc(-c4ccc(OC(F)F)c(OCC5CC5)c4)n3n2)n(C)c1=O
2. Cn1c(=O)c2c(nc(NCc3ccccc3)n2CCCC(=O)NNC(=O)c2cnn3c(-c4ccc(OC(F)F)c(OCC5CC5)c4)ccnc23)n(C)c1=O

1: 95.8; 2: 30.3
